test: Cytotoxicity against mouse RAW264.7 cells assessed as cell survival at 10 uM; type: cell-based; settings: read-out: Activity
measured-metric: viability at 10 µM (%)
Give bare numbers, in %.

Here's what some known entries look like.
- C=C[C@]1(C)C=C2C(=O)C[C@H]3C(C)(C)CC[C@H](O)[C@]3(C)[C@H]2CC1: 92.4
- C=C[C@]1(C)C=C2[C@H](O)C[C@H]3C(C)(C)CCC[C@]3(C)[C@H]2CC1: 65.8
- C=C[C@]1(C)C=C2C[C@@H](O)[C@H]3C(C)(C)CC[C@H](O)[C@]3(C)[C@H]2CC1: 65.7

Quick one: viability at 10 µM for C=C[C@]1(C)C=C2C[C@@H](O)[C@H]3C(C)(C)[C@H](O)C[C@H](O)[C@]3(C)[C@H]2CC1 ?
113

====

Exercise: state measured viability at 100 µM for each of the compounds provided.
experiment: Cytotoxicity against mouse RAW264.7 cells assessed as cell survival at 100 uM; format: cell-based; settings: read-out: Activity

Here's what some known entries look like.
• C=C[C@]1(C)C=C2CC[C@H]3C(C)(C)C[C@H](O)[C@H](O)[C@]3(C)[C@@]2(O)CC1 = 27.6%
• C=C[C@]1(C)C=C2[C@@H](OC(C)=O)[C@@H](O)[C@H]3C(C)(C)CCC[C@]3(C)[C@@]2(O)CC1 = 70.3%
• C=C[C@]1(C)C=C2C[C@@H](O)[C@H]3C(C)(C)CCC[C@]3(C)[C@@]2(OC)CC1 = 37.6%

Consider now this further compound.
Quick one: viability at 100 µM for C=C[C@]1(C)C=C2CC[C@H]3C(C)(C)[C@H](O)C[C@H](O)[C@]3(C)[C@H]2CC1 ?
47.7%

====

assay: Cytotoxicity against mouse RAW264.7 cells assessed as cell survival at 10 uM; assay type: cell-based; conditions: read-out: Activity
Exercise: state measured viability at 10 µM for each of the compounds provided.
One number for each entry, in %.

- C=C[C@]1(C)C=C2CC[C@H]3C(C)(C)C[C@H](O)[C@H](O)[C@]3(C)[C@@]2(O)CC1: 85.3
- C=C[C@]1(C)C=C2CC[C@H]3C(C)(C)C[C@H](O)[C@H](O)[C@]3(C)[C@H]2CC1: 70.4

// for each compound below, give its viability at 10 µM
1. C=C[C@]1(C)C=C2[C@@H](OC(C)=O)[C@@H](O)[C@H]3C(C)(C)CCC[C@]3(C)[C@@]2(O)CC1
2. C=C[C@]1(C)C=C2C[C@@H](O)[C@H]3C(C)(C)CCC[C@]3(C)[C@H]2CC1
3. C=C[C@]1(C)C=C2[C@H](OC(C)=O)[C@@H](O)[C@H]3C(C)(C)CCC[C@]3(C)[C@H]2CC1
4. C=C[C@]1(C)C=C2CC[C@H]3C(C)(C)CC[C@H](O)[C@]3(C)[C@H]2[C@H](O)C1
5. C=C[C@]1(C)C=C2C[C@@H](OC(C)=O)[C@H]3C(C)(C)CCC[C@]3(C)[C@@]2(O)CC1
6. C=C[C@@]1(C)C=C2CC[C@@H]3C(C)(C)C[C@@H](O)C[C@@]3(C)[C@@H]2CC1
7. C=C[C@]1(C)C=C2CC[C@H]3C(C)(C)[C@H](O)C[C@H](O)[C@]3(C)[C@H]2CC1
8. C=C[C@]1(C)C=C2[C@@H](O)[C@@H](O)[C@H]3C(C)(C)CCC[C@]3(C)[C@@]2(O)CC1

[84.7, 149, 107, 86.7, 82, 115, 85.1, 81.2]

// for each compound below, give its viability at 10 µM
1. C=C[C@]1(C)C=C2C(=O)C[C@H]3C(C)(C)CCC[C@]3(C)[C@@]2(O)CC1
2. C=C[C@]1(C)C=C2[C@@H](O)C[C@H]3C(C)(C)CCC[C@]3(C)[C@@]2(O)CC1
3. C=C[C@]1(C)C=C2C[C@@H](O)[C@H]3C(C)(C)CC[C@H](OC(C)=O)[C@]3(C)[C@H]2CC1
4. C=C[C@]1(C)C=C2C[C@@H](O)[C@H]3C(C)(C)CCC[C@]3(C)[C@@]2(OC)CC1
5. C=C[C@]1(C)C=C2CC[C@H]3C(C)(C)C[C@H](O)[C@H](O)[C@]3(C)[C@H]2[C@H](O)C1

[83.3, 98.8, 111, 104, 50.9]

// for each compound below, give its viability at 10 µM
1. C=C[C@]1(C)C=C2CC[C@H]3C(C)(C)CC[C@H](O)[C@]3(C)[C@H]2CC1
2. C=C[C@]1(C)C=C2[C@H](OC(C)=O)C[C@H]3C(C)(C)CCC[C@]3(C)[C@@]2(O)CC1
3. CNC(=N)NCCC[C@H](N)C(=O)O [TILARGININE ACETATE]

1. 77.4
2. 98.3
3. 92.6

====

tested on: RAW264.7; experiment: Anti-inflammatory activity in mouse RAW264.7 cells assessed as inhibition of LPS-induced NO production at 5 uM relative to control; assay type: functional
measured-metric: inhibition at 5 µM (%)
One number for each entry, in %.

Here's what some known entries look like.
- C=C[C@]1(C)C=C2[C@@H](OC(C)=O)[C@@H](O)[C@H]3C(C)(C)CCC[C@]3(C)[C@@]2(O)CC1: 21.4
- C=C[C@]1(C)C=C2C[C@@H](O)[C@H]3C(C)(C)CCC[C@]3(C)[C@@]2(OC)CC1: 4.09
- C=C[C@]1(C)C=C2C[C@@H](O)[C@H]3C(C)(C)CCC[C@]3(C)[C@H]2CC1: 9.97
- C=C[C@]1(C)C=C2[C@H](O)C[C@H]3C(C)(C)CCC[C@]3(C)[C@H]2CC1: 17.4
- CNC(=N)NCCC[C@H](N)C(=O)O [TILARGININE ACETATE]: 22.8
- C=C[C@]1(C)C=C2CC[C@H]3C(C)(C)C[C@H](O)[C@H](O)[C@]3(C)[C@H]2[C@H](O)C1: 17.2

// for each compound below, give its inhibition at 5 µM
1. C=C[C@]1(C)C=C2CC[C@H]3C(C)(C)C[C@H](O)[C@H](O)[C@]3(C)[C@H]2CC1
2. C=C[C@]1(C)C=C2CC[C@H]3C(C)(C)CC[C@H](O)[C@]3(C)[C@H]2CC1
3. C=C[C@]1(C)C=C2C[C@@H](OC(C)=O)[C@H]3C(C)(C)CCC[C@]3(C)[C@@]2(O)CC1
4. C=C[C@]1(C)C=C2CC[C@H]3C(C)(C)CC[C@H](O)[C@]3(C)[C@H]2[C@H](O)C1
5. C=C[C@@]1(C)C=C2CC[C@@H]3C(C)(C)C[C@@H](O)C[C@@]3(C)[C@@H]2CC1
6. C=C[C@]1(C)C=C2C[C@@H](O)[C@H]3C(C)(C)CC[C@H](O)[C@]3(C)[C@H]2CC1
7. C=C[C@]1(C)C=C2[C@@H](O)C[C@H]3C(C)(C)CCC[C@]3(C)[C@@]2(O)CC1

1. 4.21
2. 27.2
3. 17.7
4. 13.4
5. 3.43
6. 17.4
7. 18.4

// for each compound below, give its inhibition at 5 µM
1. C=C[C@]1(C)C=C2[C@H](OC(C)=O)C[C@H]3C(C)(C)CCC[C@]3(C)[C@@]2(O)CC1
2. C=C[C@]1(C)C=C2C(=O)C[C@H]3C(C)(C)CC[C@H](O)[C@]3(C)[C@H]2CC1
3. C=C[C@]1(C)C=C2C[C@@H](O)[C@H]3C(C)(C)[C@H](O)C[C@H](O)[C@]3(C)[C@H]2CC1
4. C=C[C@]1(C)C=C2C(=O)C[C@H]3C(C)(C)CCC[C@]3(C)[C@@]2(O)CC1

1: 20.7; 2: 16.5; 3: 9.01; 4: 33.3

====

Exercise: state measured inhibition at 10 µM for each of the compounds provided.
test system: RAW264.7; test: Anti-inflammatory activity in mouse RAW264.7 cells assessed as inhibition of LPS-induced NO production at 10 uM relative to control; format: functional
One number for each entry, in %.

• C=C[C@]1(C)C=C2[C@@H](O)C[C@H]3C(C)(C)CCC[C@]3(C)[C@@]2(O)CC1 = 14.8
• C=C[C@]1(C)C=C2C(=O)C[C@H]3C(C)(C)CC[C@H](O)[C@]3(C)[C@H]2CC1 = 7.8
• C=C[C@]1(C)C=C2C[C@@H](OC(C)=O)[C@H]3C(C)(C)CCC[C@]3(C)[C@@]2(O)CC1 = 9.03
• C=C[C@]1(C)C=C2C[C@@H](O)[C@H]3C(C)(C)[C@H](O)C[C@H](O)[C@]3(C)[C@H]2CC1 = 15.2
• C=C[C@@]1(C)C=C2CC[C@@H]3C(C)(C)C[C@@H](O)C[C@@]3(C)[C@@H]2CC1 = 7.09

// for each compound below, give its inhibition at 10 µM
1. C=C[C@]1(C)C=C2CC[C@H]3C(C)(C)C[C@H](O)[C@H](O)[C@]3(C)[C@@]2(O)CC1
2. CNC(=N)NCCC[C@H](N)C(=O)O [TILARGININE ACETATE]
3. C=C[C@]1(C)C=C2CC[C@H]3C(C)(C)[C@H](O)C[C@H](O)[C@]3(C)[C@H]2CC1

[7.8, 27, 13.3]
